# system_tested: phosphorylated PDK1 (Homo sapiens (Human), UniProt O15530)
# Sequence (O15530 51-360): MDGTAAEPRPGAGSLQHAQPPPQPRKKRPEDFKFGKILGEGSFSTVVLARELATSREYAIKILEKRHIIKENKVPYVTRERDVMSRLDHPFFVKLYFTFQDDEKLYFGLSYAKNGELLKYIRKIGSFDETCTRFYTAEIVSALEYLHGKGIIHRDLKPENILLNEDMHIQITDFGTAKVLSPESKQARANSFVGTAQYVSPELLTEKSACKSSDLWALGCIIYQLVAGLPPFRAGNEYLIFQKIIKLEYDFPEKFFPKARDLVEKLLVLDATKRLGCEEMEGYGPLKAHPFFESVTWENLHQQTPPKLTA
pIC50: −log10 of the molar value.
Could you please report measured pIC50 for the items listed next?

For every item in the list below, what is its measured pIC50?
1. O=C(NCc1cccc(-c2ccc(=O)[nH]c2)c1)c1cccn(Cc2ccc(F)c(F)c2)c1=O
2. O=C1Cc2ccc(/C=C/CNC(=O)c3cc(Cl)cn(Cc4cc(F)c(F)c(F)c4)c3=O)cc2N1
3. O=C(NCc1cnc(-c2c[nH]c3ncccc23)s1)c1cccn(Cc2ccc(F)c(F)c2)c1=O
4. O=C(NCc1noc(-c2c[nH]c3ncccc23)n1)c1cc(Cl)cn(Cc2cccc(F)c2)c1=O

5.00 to 6.30
> 6.30
> 6.30
> 6.30

For every item in the list below, what is its measured pIC50?
1. CN(C)C(=O)C[C@@H](NC(=O)c1cccn(Cc2ccc(F)c(F)c2)c1=O)c1nnc(-c2c[nH]c3ncccc23)o1
2. O=C(N[C@@H](COc1ccc2[nH]c(=O)[nH]c2c1)c1ccsc1)c1cccn(Cc2ccc(F)c(F)c2)c1=O
3. O=C(O)c1cnc2[nH]cc(-c3ccc(CNC(=O)c4cccn(Cc5ccc(F)c(F)c5)c4=O)s3)c2c1
4. Cc1ccc(Cn2cccc(C(=O)NCc3noc(-c4c[nH]c5ncccc45)n3)c2=O)cc1Cl
5. CC(C)n1c(=O)[nH]c2cc(OCCNC(=O)c3cccn(Cc4ccc(F)c(F)c4)c3=O)ccc21
6. O=C(NCc1ccc(-c2cccc3[nH]ncc23)s1)c1cccn(Cc2ccc(F)c(F)c2)c1=O
7. O=C(NCCOc1cc2[nH]c(=O)[nH]c2cc1F)c1cccn(Cc2ccc(F)c(F)c2)c1=O

5.00 to 6.30
> 6.30
> 6.30
> 6.30
> 6.30
> 6.30
5.00 to 6.30

For every item in the list below, what is its measured pIC50?
1. O=C(NCc1cc(-c2c[nH]c3ncccc23)[nH]n1)c1cccn(Cc2cc(F)c(F)c(F)c2)c1=O
2. O=C(NCc1nccc(-c2c[nH]c3ncccc23)n1)c1cccn(Cc2ccc(F)c(F)c2)c1=O
3. O=C(NCc1cccc(-c2c[nH]c3ncc(-c4ccco4)cc23)c1)c1cccn(Cc2ccc(F)c(F)c2)c1=O

1: > 6.30; 2: > 6.30; 3: > 6.30

For every item in the list below, what is its measured pIC50?
1. Cc1nc(CNC(=O)c2cccn(Cc3ccc(F)c(F)c3)c2=O)sc1-c1c[nH]c2ncccc12
2. NC(=O)c1cnc2[nH]cc(-c3cccc(CNC(=O)c4cccn(Cc5ccc(F)c(F)c5)c4=O)c3)c2c1
3. C[C@@H](NC(=O)c1cccn(Cc2ccc(F)c(F)c2)c1=O)c1nc(-c2c[nH]c3ncccc23)cs1
4. O=C(N[C@H](CO)c1nnc(-c2c[nH]c3ncccc23)o1)c1cccn(Cc2ccc(F)c(F)c2)c1=O
5. O=C(NCc1ncc(-c2c[nH]c3ncccc23)o1)c1cccn(Cc2ccc(F)c(F)c2)c1=O

5.00 to 6.30
> 6.30
> 6.30
> 6.30
> 6.30

For every item in the list below, what is its measured pIC50?
1. CC(C)Oc1cc(CNC(=O)c2cccn(Cc3ccc(F)c(F)c3)c2=O)cc(-c2c[nH]c3ncc(F)cc23)c1
2. O=C(NCc1noc(-c2c[nH]c3ncccc23)n1)c1cccn(Cc2ccc(Cl)c(F)c2)c1=O
3. CC1(C)C(=O)Nc2cc(/C=C/CNC(=O)c3cccn(Cc4cc(F)c(F)c(F)c4)c3=O)ccc21
4. O=C(NCc1cccc(-c2c[nH]c3ncc(Cl)cc23)c1)c1cccn(Cc2ccc(F)c(F)c2)c1=O
5. O=C(NCc1cccc(-c2c[nH]c3nccc(Cl)c23)c1)c1cccn(Cc2ccc(F)c(F)c2)c1=O
6. COC(=O)c1cc(-c2cccc(CNC(=O)c3cccn(Cc4ccc(F)c(F)c4)c3=O)c2)c[nH]1

["> 6.30", "> 6.30", "5.00 to 6.30", "> 6.30", "> 6.30", "> 6.30"]

For every item in the list below, what is its measured pIC50?
1. O=C1CCc2c(ncnc2-c2cccc(CNC(=O)c3cccn(Cc4ccc(F)c(F)c4)c3=O)c2)N1
2. O=C1Cc2ccc(/C=C/CNC(=O)c3cccn(Cc4cc(F)c(F)c(F)c4)c3=O)cc2N1
3. O=C(NCc1cc(-c2c[nH]c3ncccc23)ccc1F)c1cccn(Cc2ccc(F)c(F)c2)c1=O
4. COc1ccnc(NCC/C=C/CCNC(=O)c2cccn(Cc3cccc(Cl)c3)c2=O)n1
5. O=C(NCc1cnc(-c2c[nH]c3ncccc23)s1)c1cccn(Cc2ccc(Cl)c(Cl)c2)c1=O
6. O=C(NCc1ccc(-c2ccc3[nH]ncc3c2)s1)c1cccn(Cc2ccc(F)c(F)c2)c1=O

1. < 5.00
2. > 6.30
3. > 6.30
4. 5.00 to 6.30
5. > 6.30
6. > 6.30

----------
dephosphorylated PDK1 (Homo sapiens (Human), UniProt O15530): recorded IC50 for assorted compounds
Sequence (O15530 51-360): as above

In the examples that follow, each entry is paired with its recorded IC50.
compound_structure | property_measured | assay_value
O=C(NCCCCc1c[nH]c2ncccc12)c1cccn(Cc2ccc(F)c(F)c2)c1=O | IC50 | < 500 nM
O=C(NCc1noc(-c2ccc3ncnn3c2)n1)c1cccn(Cc2ccc(F)c(F)c2)c1=O | IC50 | < 500 nM
CCc1ccnc(NCCC#CCCNC(=O)c2cc(Cl)cn(Cc3cccc(Cl)c3)c2=O)n1 | IC50 | < 500 nM

Now consider the entry below.
Quick one: give measured IC50 for "O=C(NCc1cccc(-c2ccc3nonc3c2)c1)c1cccn(Cc2ccc(F)c(F)c2)c1=O" 500 to 10000 nM

----------
Could you please report measured EC50 for the items listed next?
# System: phospho-akt (Thr308)
# run_description: phospho-akt (Thr308) MSD ELISA in PC-3 cells
# Format: cell-based
# test_conditions: Homo sapiens, PC-3, 2 h, PC-3 cells, 2 hours, no serum; read-out: Inhibition of P308 Akt in cells using MSD EC50

compound_structure | assay_value
CN(C)C(=O)C[C@@H](NC(=O)c1cccn(Cc2ccc(F)c(F)c2)c1=O)c1ccc(-c2c[nH]c3ncccc23)s1 | > 5 µM

For every item in the list below, what is its measured EC50?
1. O=C(NCc1cc(O)cc(-c2c[nH]c3ncccc23)c1)c1cccn(Cc2ccc(F)c(F)c2)c1=O
2. O=C(NCc1noc(-c2c[nH]c3ncccc23)n1)c1cccn(Cc2ccc(Cl)cc2)c1=O
3. CNC(=O)C[C@@H](NC(=O)c1cccn(Cc2ccc(F)c(F)c2)c1=O)c1ncc(-c2c[nH]c3ncccc23)s1

["1 to 5 µM", "1 to 5 µM", "> 5 µM"]

----------
Could you please report measured Ratio of PIP3 IC50 with PKCtide to PIP3 IC50 with AKT for the items listed next?
# system_tested: full-length PDK1 (Homo sapiens (Human))
# Sequence (O15530 whole entry): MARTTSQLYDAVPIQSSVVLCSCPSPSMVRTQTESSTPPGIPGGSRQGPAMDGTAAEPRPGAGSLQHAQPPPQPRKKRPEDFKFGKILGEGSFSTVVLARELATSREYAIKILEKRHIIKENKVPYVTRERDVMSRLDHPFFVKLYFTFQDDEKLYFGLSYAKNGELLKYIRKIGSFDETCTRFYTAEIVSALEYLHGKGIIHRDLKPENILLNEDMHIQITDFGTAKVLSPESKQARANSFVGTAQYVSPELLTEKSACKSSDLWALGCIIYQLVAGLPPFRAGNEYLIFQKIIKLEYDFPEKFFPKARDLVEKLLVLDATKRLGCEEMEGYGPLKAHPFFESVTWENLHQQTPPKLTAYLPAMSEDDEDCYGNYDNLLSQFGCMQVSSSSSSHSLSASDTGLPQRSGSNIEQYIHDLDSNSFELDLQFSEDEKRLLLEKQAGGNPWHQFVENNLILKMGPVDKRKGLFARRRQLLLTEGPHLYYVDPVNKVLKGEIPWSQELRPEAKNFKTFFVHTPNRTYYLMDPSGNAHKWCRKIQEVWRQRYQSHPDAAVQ
# run_description: PDK phosphorylation of AKT and PKC-PIFtide in presence of PIP3 vesicles
# Assay type: biochemical
# test_conditions: substrates PKC-PIFtide vs AKT2
Numbers only.

In the examples that follow, each entry is paired with its recorded Ratio of PIP3 IC50 with PKCtide to PIP3 IC50 with AKT.
compound_structure | assay_value
COc1ccnc(NCCC#CCCNC(=O)c2cccn(Cc3cccc(Cl)c3)c2=O)n1 | 19.1
O=C(NCCCCc1c[nH]c2ncccc12)c1cccn(Cc2ccc(F)c(F)c2)c1=O | 13.5

For every item in the list below, what is its measured Ratio of PIP3 IC50 with PKCtide to PIP3 IC50 with AKT?
1. COc1ccnc(NCCC#CCNC(=O)c2cccn(Cc3ccc(F)c(F)c3)c2=O)n1
2. O=C(NCc1ccc(-c2c[nH]c3ncccc23)s1)c1cccn(Cc2ccc(F)c(F)c2)c1=O

1. 51.8
2. 36.7

Quote Ratio of PIP3 IC50 with PKCtide to PIP3 IC50 with AKT with test system full-length PDK1 (Homo sapiens (Human)) for "O=C(NCc1nc(-c2c[nH]c3ncccc23)cs1)c1cccn(Cc2ccc(F)c(F)c2)c1=O" 71.9

----------
# system_tested: phosphorylated PDK1 (Homo sapiens (Human))
Could you please report measured IC50 for the items listed next?

In the examples that follow, each entry is paired with its recorded IC50.
compound | IC50
CNc1nc(-c2ccc(CNC(=O)c3cccn(Cc4ccc(F)c(F)c4)c3=O)s2)cn2ccnc12 | 500 to 10000 nM
CNC(=O)C[C@@H](NC(=O)c1cccn(Cc2ccc(F)c(F)c2)c1=O)c1ccc(-c2c[nH]c3ncccc23)s1 | < 500 nM
C[C@@H](c1ccc(F)cc1)n1cccc(C(=O)NCc2noc(-c3c[nH]c4ncccc34)n2)c1=O | < 500 nM

For every item in the list below, what is its measured IC50?
1. O=C(NCc1ccc(-c2c[nH]c3ncccc23)s1)c1cccn(Cc2ccc(F)c(F)c2)c1=O
2. O=C(NC(C(=O)O)c1ccc(-c2c[nH]c3ncccc23)s1)c1cccn(Cc2ccc(F)c(F)c2)c1=O (stereo not drawn)
3. NC[C@@H](NC(=O)c1cccn(Cc2ccc(F)c(F)c2)c1=O)c1nnc(-c2c[nH]c3ncccc23)o1
4. COC(=O)[C@H](COc1ccc2[nH]c(=O)[nH]c2c1)NC(=O)c1cccn(Cc2ccc(F)c(F)c2)c1=O
5. O=C(N[C@@H](COc1ccc2[nH]c(=O)[nH]c2c1)c1cccs1)c1cccn(Cc2ccc(F)c(F)c2)c1=O

1: < 500 nM; 2: 500 to 10000 nM; 3: < 500 nM; 4: < 500 nM; 5: < 500 nM

For every item in the list below, what is its measured IC50?
1. O=C(NCc1ccc(-c2c[nH]c3ncc(F)cc23)s1)c1cccn(Cc2ccc(F)c(F)c2)c1=O
2. O=C(N[C@@H](COc1ccc2[nH]c(=O)[nH]c2c1F)c1ccccc1)c1cccn(Cc2cc(F)c(F)c(F)c2)c1=O
3. O=C(NCc1ccc(-c2n[nH]c3ncccc23)s1)c1cccn(Cc2ccc(F)c(F)c2)c1=O

1: < 500 nM; 2: < 500 nM; 3: < 500 nM

For every item in the list below, what is its measured IC50?
1. COC(=O)[C@@H](COc1ccc2[nH]c(=O)[nH]c2c1)NC(=O)c1cccn(Cc2ccc(F)c(F)c2)c1=O
2. O=C(NCc1noc(-c2ccc3ncnn3c2)n1)c1cccn(Cc2ccc(F)c(F)c2)c1=O
3. O=C(NCc1nc(-c2c[nH]c3ncccc23)cs1)c1cccn(Cc2cccc(Cl)c2)c1=O
4. O=C(NCc1cccc(-c2c[nH]c3cnccc23)c1)c1cccn(Cc2ccc(F)c(F)c2)c1=O
5. O=C(NCc1ncc(-c2c[nH]c3ncccc23)s1)c1cccn(Cc2ccc(F)c(F)c2)c1=O
6. NC(=O)C[C@@H](NC(=O)c1cccn(Cc2ccc(F)c(F)c2)c1=O)c1ccc(-c2c[nH]c3ncccc23)s1

1. < 500 nM
2. 500 to 10000 nM
3. < 500 nM
4. 500 to 10000 nM
5. < 500 nM
6. < 500 nM

Quick one: give measured IC50 for "O=C(NCc1noc(-c2c[nH]c3ncccc23)n1)c1cccn(Cc2ccc(C(F)(F)F)c(F)c2)c1=O" < 500 nM
